experiment: Toxicity liver stage against HepG2, at 10uM; format: cell-based; set-up: test concentration 10 uM, cell line HepG2-A16-CD81EGFP; conditions: human, HepG2-A16-CD81EGFP cells; read-out: INHIBITION
Catalogue of cytotoxicity at 10 µM readings, one per entry.
# unit: % | format: bare number

Use these answered entries as a reference point.
• CCN(Cc1c(C)nn(CC)c1C)S(=O)(=O)c1cnn(C)c1 = 4.98
• CN(C(=O)Cn1nnnc1C(C)(C)C)c1ccccc1 = -48.4
• CCOc1ccc(CC(=O)N2CCCC(n3nc(C)nc3C)C2)cc1 (stereo unspecified) = -3.18
• N#Cc1ccsc1NC(=O)CN1CCOC(Cn2cccn2)C1 (stereo unspecified) = -5.66
• COCc1nc(CNC2CCSC2)no1 (stereo unspecified) = -1.37
• Cc1ccc(Oc2ncccc2CNC(=O)NC2CCCCC2)cn1 = -3.01

For record `CC(C)(C)c1cc(CN2C[C@H]3CC[C@@H](C2)N(Cc2ccccn2)C3)n[nH]1` the listed cytotoxicity at 10 µM is 0.541

For record `CCN1CCN(S(=O)(=O)N2CCc3ccccc3C2)[C@H]2CS(=O)(=O)C[C@H]21` the listed cytotoxicity at 10 µM is -4

For record Cn1cc(CN2CCC(F)(F)C3(CCN(c4ccccn4)C3)C2)cn1 (stereo unspecified) the listed cytotoxicity at 10 µM is -0.434

For record Cc1cc(NC(=O)N(CC2CCOC2)C2CC2)no1 (stereo unspecified) the listed cytotoxicity at 10 µM is -0.457

For record `CCS(=O)(=O)N1CCC(Nc2c(Cl)cccc2C#N)CC1` the listed cytotoxicity at 10 µM is -0.85

###

assay: Toxicity liver stage against HepG2, at 10uM; format: cell-based; set-up: test concentration 10 uM, cell line HepG2-A16-CD81EGFP; conditions: human, HepG2-A16-CD81EGFP cells; read-out: INHIBITION
Catalogue of cytotoxicity at 10 µM readings, one per entry.
# unit: % | format: bare number

Use these answered entries as a reference point.
- CC1CCN(C(=O)C(C)N2CCN(c3nccs3)CC2)CC1 (stereo unspecified): 0.583
- Cc1ccc(OC2(C(=O)NC(C)Cc3ccncc3)CCNCC2)cc1 (stereo unspecified): -9.89
- Cc1csc(N2CCN(Cc3cnc(C)s3)CC2C)n1 (stereo unspecified): 14.7
- Cn1cnnc1C1CCN(C(=O)c2cc(-c3ccccc3)on2)CC1: 3.77
- CN1CCC(CNC(=O)c2ccc3cccc(Cl)c3n2)C1 (stereo unspecified): -8.93

For record `N#Cc1c(N2CCOCC2)nsc1-c1cccnc1` the listed cytotoxicity at 10 µM is 17

###

assay: Toxicity liver stage against HepG2, at 10uM; type: cell-based; design: test concentration 10 uM, cell line HepG2-A16-CD81EGFP; settings: human, HepG2-A16-CD81EGFP cells; read-out: INHIBITION
Catalogue of cytotoxicity at 10 µM readings, one per entry.
# unit: % | format: bare number

Use these answered entries as a reference point.
- COCCN1CCN(C(=O)C2CC=CC2)Cc2cccnc21: -11.1
- CN(C)CCOc1ccccc1N1CCN(C(=O)C(C)(C)C#N)CC1: 11.4
- CCc1nnc(CN(C)Cc2cccc(C(=O)Nc3ccnn3C)c2)o1: -3.7
- O=S(=O)(NCc1ccnc(-n2ccnc2)c1)c1cncc(Cl)c1: 3.46
- CC1CN(c2ncnc3sccc23)CCN1c1nccs1 (stereo not drawn): 32.1

For record O=S(=O)(c1ccccc1F)N1CCCCC1c1cc[nH]n1 (stereo not drawn) the listed cytotoxicity at 10 µM is 1.22

For record `O=C([C@H]1C[C@@H]2CCN(c3cccc(F)c3)C[C@H]2O1)N1CCCCO1` the listed cytotoxicity at 10 µM is 1.67

For record `CN(C)C(=O)CN1C(=O)C[C@@H]2[C@@H]1CCN2Cc1cccc(C#N)c1` the listed cytotoxicity at 10 µM is -61.3

For record `CN1CCN(S(=O)(=O)c2ccccc2)Cc2cccnc21` the listed cytotoxicity at 10 µM is -104

For record `Cc1nc2c(c(NCCc3nccs3)n1)CCN(CC1CC1)CC2` the listed cytotoxicity at 10 µM is -1.38

For record COc1ccccc1CC1CCCN1C(=O)c1cn[nH]c1C (stereo not drawn) the listed cytotoxicity at 10 µM is 0.58

For record `CC(C)CNC(=O)[C@H]1CCS(=O)(=O)[C@@H]2CN(Cc3ccc(Cl)cc3)C[C@H]12` the listed cytotoxicity at 10 µM is -13.9

For record CN1CCCC(Cc2cncc(C(=O)N3CCOCC3)c2)C1 (stereo not drawn) the listed cytotoxicity at 10 µM is 6.32

For record `N#CCCN(CCC#N)C(=O)c1ccc(OCC2CC2)cc1` the listed cytotoxicity at 10 µM is -10.8

For record `Cc1ccc(S(=O)(=O)n2ccn(C(=O)COc3ccccc3)c2=O)cc1` the listed cytotoxicity at 10 µM is 5.34

For record CC(N(C)Cc1nc2c(cnn2C)c(=O)[nH]1)C(C)(C)C (stereo not drawn) the listed cytotoxicity at 10 µM is -3.09

For record `O=C(C1CC=CC1)N1CCC2(CC1)CN(Cc1ccccn1)CCO2` the listed cytotoxicity at 10 µM is -10.1

For record CN(C)C(=O)COCC1CN(CC2CCOCC2)Cc2ncn(C)c21 (stereo not drawn) the listed cytotoxicity at 10 µM is 1.03

For record `O=C1CCCc2cc(-c3csc(CCN4CCOC4=O)n3)ccc2N1` the listed cytotoxicity at 10 µM is 0.196

For record `CCCOc1ccc(OCCN2CCOCS2(=O)=O)cc1` the listed cytotoxicity at 10 µM is 5.56

For record `CS(=O)(=O)N1C[C@@H]2CCN(C(=O)c3cscn3)[C@@H]2C1` the listed cytotoxicity at 10 µM is 9.79

For record O=C(NC1CCCN(Cc2c(F)cccc2F)C1)c1cnccn1 (stereo not drawn) the listed cytotoxicity at 10 µM is -1.62

For record `O=C(O)c1ccc(-c2cscn2)cc1` the listed cytotoxicity at 10 µM is 7.68

###

assay: Toxicity liver stage against HepG2, at 10uM; assay type: cell-based; parameters: test concentration 10 uM, cell line HepG2-A16-CD81EGFP; settings: human, HepG2-A16-CD81EGFP cells; read-out: INHIBITION
Catalogue of cytotoxicity at 10 µM readings, one per entry.
Include the unit right after the number.

* O=C1OCCN1CCN1CCCN(Cc2ccccc2F)CC1 | -7.11%

Next item in the queue.
For record `O=C(NCc1nn(-c2ccccc2)c2c1CCC2)N1CCSCC1` the listed cytotoxicity at 10 µM is -4.89%

###

experiment: Toxicity liver stage against HepG2, at 10uM; type: cell-based; set-up: test concentration 10 uM, cell line HepG2-A16-CD81EGFP; conditions: human, HepG2-A16-CD81EGFP cells; read-out: INHIBITION
Catalogue of cytotoxicity at 10 µM readings, one per entry.
# unit: % | format: bare number

Use these answered entries as a reference point.
- COCc1c(C(=O)O)nnn1Cc1cccc(C(F)(F)F)c1: 2.17
- Cc1ccc(OCC(C)NS(C)(=O)=O)cc1 (stereo unspecified): 14.8
- Cc1noc(CCCC(=O)NC(C)c2cccnc2)n1 (stereo unspecified): -12.5
- Cc1oc(-c2ccc(Cl)cc2)nc1C(=O)NC1=NCCS1: 4.65
- COCCN1CC2(CCN(Cc3ccco3)CC2)c2ccccc21: 18.3

Next item in the queue.
For record `O=C(CNC(=O)c1ccc(Cl)cc1)Nc1nccs1` the listed cytotoxicity at 10 µM is -7.55

###

experiment: Toxicity liver stage against HepG2, at 10uM; format: cell-based; set-up: test concentration 10 uM, cell line HepG2-A16-CD81EGFP; conditions: human, HepG2-A16-CD81EGFP cells; read-out: INHIBITION
readout-name: cytotoxicity at 10 µM (%)
# unit: % | format: bare number

• Cc1ccccc1NC(=O)CNC(C)COc1ccccc1 (configuration not stated) = -0.264
• CN(C)c1nccc(C2CCCCN2Cc2cnn3cccnc23)n1 (configuration not stated) = 10.5
• CN(C)C(=O)CSc1nnc(CCNC(=O)OC(C)(C)C)o1 = 13.7
• OC1(c2ccccc2F)CCN(Cc2ccccc2N2CCCC2)CC1 = 13.2

For record `CCCc1nc(CN(CCO)Cc2cc(Br)ccc2F)no1` the listed cytotoxicity at 10 µM is -5.1

###

assay: Toxicity liver stage against HepG2, at 10uM; assay type: cell-based; parameters: test concentration 10 uM, cell line HepG2-A16-CD81EGFP; conditions: human, HepG2-A16-CD81EGFP cells; read-out: INHIBITION
Catalogue of cytotoxicity at 10 µM readings, one per entry.
# unit: % | format: bare number

Use these answered entries as a reference point.
* O=S(=O)(NCC1CCN(c2cnccn2)CC1)C1CC1 | 11.3
* Cc1cc(C)n(CC2CCCN2CCCS(C)(=O)=O)n1 (stereo not drawn) | -3.48
* O=C(O)c1cc(-n2cc3c(n2)CCC3)cc(S(=O)(=O)NC2CCCC2)c1 | -2.05
* Cc1noc(CCCC(=O)NCC(c2ccco2)N2CCCCC2)n1 (stereo not drawn) | 13.1
* N#Cc1ccccc1N1CCCN(C(=O)CCc2cccs2)CC1 | -1.27

For record O=C1NCc2ccc(NC(=O)C3CCCN3c3nccs3)cc21 (stereo not drawn) the listed cytotoxicity at 10 µM is -6.02

For record `CC(=O)N1CCC(CSCc2ccco2)CC1` the listed cytotoxicity at 10 µM is 9.77

For record `COCCc1noc(-c2cn(Cc3ccccc3C)nn2)n1` the listed cytotoxicity at 10 µM is 3.15
